# test-name: in vivo
# study-conditions: mouse, po
reported-endpoint: LD50

Value lookup for LD50; key = O=C(NC1CCN(CCCC(=O)c2c[nH]c3ccccc23)CC1)c1ccccc1 > 4000 mg/kg

----------
# test-name: in vivo
# study-conditions: mouse, ip
reported-endpoint: LD50 at 24 h (mg/kg)
Kindly provide the numeric value in mg/kg only, without the unit symbol.

Value lookup for LD50 at 24 h; key = O=C(NC1CCN(CCCC(=O)c2c[nH]c3ccccc23)CC1)c1ccccc1 1000
